# Test system: Mus musculus
# assayInfo: Effect on serum aspartate aminotransaminase level in concanavalin A-induced acute hepatitis model of BALB/c mouse at 50 mg/kg, po treated 0.5 hrs after concanavalin A challenge measured after 20 hrs (Rvb= 4997.9 +/- 2619.6)
# Type: functional
Mark condition not met for Activity values under 1000 U/L, and condition met for everything at or above.

chemSmiles: COc1cc(/C=C2\CC(=O)NC2=O)ccc1O
labelClass: condition met
--
chemSmiles: COc1ccc(/C=C2\SC(=O)NC2=O)cc1
labelClass: condition not met
--
chemSmiles: COc1ccc(C=C2C(=O)NC(=S)NC2=O)cc1
labelClass: condition met

stdin: Could you verify whether the entry CN(C)c1ccc(C=C2C(=O)NC(=S)NC2=O)cc1 shows Activity of no less than 1000 U/L?
stdout: condition met

stdin: # bool: Activity of O=C1NC(=O)/C(=C/c2ccc3nccnc3c2)S1 >= 1000 U/L
stdout: condition met

----------
# assayInfo: Oral bioavailability in BALB/c mouse at 30 mg/kg
# Format: ADME, organism-based
# settings: in vivo
endpoint: bioavailability (%)
Give bare numbers, in %.

stdin: Using the record for COc1ccc(/C=C2\SC(=O)NC2=O)cc1 , report its bioavailability.
stdout: 14.9

----------
# System: RAW264.7
# assayInfo: Inhibition of MCP1-induced chemotaxis in mouse RAW264.7 cells
# Type: functional, cell-based
Provide the reported pIC50 of each item.
Answers are plain numbers, as −log10 of the molar value.

Batch of 5 compounds: report pIC50 for each.
1. COc1cc(/C=C2\CC(=O)NC2=O)ccc1O
2. COc1ccc(/C=C2\SC(=O)NC2=O)cc1
3. O=C1NC(=O)/C(=C/c2ccc3nccnc3c2)S1
4. COc1ccc(C=C2C(=O)NC(=S)NC2=O)cc1
5. CN(C)c1ccc(C=C2C(=O)NC(=S)NC2=O)cc1

stdout:
1. 4.69
2. 6.14
3. 5.27
4. 4.95
5. 5.14
